Where do the numbers come from? From ChEMBL document CHEMBL4392825.

- Target or system: NAD-dependent protein deacetylase sirtuin-3, mitochondrial (Homo sapiens)
- Sequence (whole entry): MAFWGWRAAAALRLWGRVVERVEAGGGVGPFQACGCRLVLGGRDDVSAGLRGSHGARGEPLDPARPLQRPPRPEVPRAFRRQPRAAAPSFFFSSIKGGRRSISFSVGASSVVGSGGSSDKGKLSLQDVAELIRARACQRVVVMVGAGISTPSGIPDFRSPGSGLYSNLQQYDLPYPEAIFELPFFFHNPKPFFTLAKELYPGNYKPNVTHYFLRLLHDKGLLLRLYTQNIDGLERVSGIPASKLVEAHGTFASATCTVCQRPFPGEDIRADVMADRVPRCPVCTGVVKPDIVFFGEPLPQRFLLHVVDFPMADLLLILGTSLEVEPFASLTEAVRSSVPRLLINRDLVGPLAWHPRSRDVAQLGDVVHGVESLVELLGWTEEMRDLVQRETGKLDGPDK
- Measurement description: Inhibition of recombinant SIRT3 (unknown origin) assessed as residual activity using VSTPVK(Ac)-MCA as substrate measured after 60 mins by fluorescence assay relative to control
- Parameters: concentration or dose not given beside the values

Smiles text: COC(=O)[C@H](Cc1cn(C(c2ccccc2)(c2ccccc2)c2ccccc2)cn1)NCc1ccc(Br)nc1
Activity, %: 71.9
//
Smiles text: COC(=O)[C@H](Cc1cn(C(c2ccccc2)(c2ccccc2)c2ccccc2)cn1)NCc1ccccn1
Activity, %: 67.7
//
Smiles text: COC(=O)[C@@H](N)Cc1cn(C(c2ccccc2)(c2ccccc2)c2ccccc2)cn1
Activity, %: 76.2
//
Smiles text: COC(=O)[C@H](Cc1cn(C(c2ccccc2)(c2ccccc2)c2ccccc2)cn1)NCc1ccc(N(C)C)cc1
Activity, %: 81.7
//
Smiles text: COC(=O)[C@H](Cc1cn(C(c2ccccc2)(c2ccccc2)c2ccccc2)cn1)N(Cc1ccccc1)Cc1ccccc1
Activity, %: 90.7

====

- Tested on: MT2
- Measurement description: Cytotoxicity against human MT2 cells assessed as reduction in cell viability measured after 1 day by MTT assay
- Type: cell-based
- Conditions used: MT2, 24 h

Smiles text: COC(=O)[C@H](Cc1cn(C(c2ccccc2)(c2ccccc2)c2ccccc2)cn1)NCc1cc(N(C)C)ccn1
Unit label: µM
Bound type: =
IC50: 3.53

Smiles text: CCN(CC)c1ccnc(CN[C@@H](Cc2cn(C(c3ccccc3)(c3ccccc3)c3ccccc3)cn2)C(=O)OC)c1
Unit label: µM
Bound type: =
IC50: 4.36

Smiles text: COC(=O)[C@H](Cc1cn(C(c2ccccc2)(c2ccccc2)c2ccccc2)cn1)NCc1ccccn1
Unit label: µM
Bound type: =
IC50: 1.75

Smiles text: COC(=O)[C@H](Cc1cn(C(c2ccccc2)(c2ccccc2)c2ccccc2)cn1)NCc1ccc(Br)nc1
Unit label: µM
Bound type: =
IC50: 1.37

Smiles text: Cc1cc(C)nc(SCC(=O)Nc2ncc(Cc3cccc4ccccc34)s2)n1
Unit label: µM
Bound type: >
IC50: 100

Smiles text: COC(=O)[C@H](Cc1cn(C(c2ccccc2)(c2ccccc2)c2ccccc2)cn1)NCc1ccc(N(C)C)cc1
Unit label: µM
Bound type: =
IC50: 6.81

Smiles text: COC(=O)[C@H](Cc1cn(C(c2ccccc2)(c2ccccc2)c2ccccc2)cn1)NCc1cc(N(C)C)cc(CN[C@@H](Cc2cn(C(c3ccccc3)(c3ccccc3)c3ccccc3)cn2)C(=O)OC)n1
Unit label: µM
Bound type: =
IC50: 8.86

Smiles text: COC(=O)[C@@H](N)Cc1cn(C(c2ccccc2)(c2ccccc2)c2ccccc2)cn1
Unit label: µM
Bound type: =
IC50: 3.13

Smiles text: COC(=O)[C@H](Cc1c[nH]cn1)NCc1cc(N(C)C)cc(CN[C@@H](Cc2cn(C(c3ccccc3)(c3ccccc3)c3ccccc3)cn2)C(=O)OC)n1
Unit label: µM
Bound type: =
IC50: 8.61

====

- Target or system: NAD-dependent protein deacetylase sirtuin-1 (Homo sapiens)
- Sequence (whole entry): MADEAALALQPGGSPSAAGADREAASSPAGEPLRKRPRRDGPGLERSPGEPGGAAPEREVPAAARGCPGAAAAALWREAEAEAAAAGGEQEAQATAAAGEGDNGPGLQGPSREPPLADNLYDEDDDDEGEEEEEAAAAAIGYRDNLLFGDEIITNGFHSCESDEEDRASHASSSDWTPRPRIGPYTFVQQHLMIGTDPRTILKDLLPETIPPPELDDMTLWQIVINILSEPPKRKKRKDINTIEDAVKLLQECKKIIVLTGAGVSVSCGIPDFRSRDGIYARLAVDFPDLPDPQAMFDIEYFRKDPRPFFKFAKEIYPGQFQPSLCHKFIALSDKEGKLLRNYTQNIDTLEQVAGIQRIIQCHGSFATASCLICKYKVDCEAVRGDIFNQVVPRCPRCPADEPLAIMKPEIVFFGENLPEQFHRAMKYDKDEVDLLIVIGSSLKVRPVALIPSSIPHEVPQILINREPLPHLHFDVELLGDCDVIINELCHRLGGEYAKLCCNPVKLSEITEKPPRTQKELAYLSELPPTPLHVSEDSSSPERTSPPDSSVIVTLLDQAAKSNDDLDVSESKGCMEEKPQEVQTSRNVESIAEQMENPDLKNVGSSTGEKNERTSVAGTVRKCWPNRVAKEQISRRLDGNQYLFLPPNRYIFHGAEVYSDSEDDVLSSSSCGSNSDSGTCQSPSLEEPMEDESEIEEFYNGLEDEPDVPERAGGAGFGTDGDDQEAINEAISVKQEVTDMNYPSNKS
- Measurement description: Inhibition of recombinant SIRT1 (unknown origin) assessed as residual activity using RHKK(Ac)-MCA as substrate measured after 60 mins by fluorescence assay relative to control
- Design: concentration or dose not given beside the values
Metric: Activity (%)

Smiles text: COC(=O)[C@H](Cc1cn(C(c2ccccc2)(c2ccccc2)c2ccccc2)cn1)NCc1ccccn1
Metric: Activity
Readout number: 96.5
//
Smiles text: COC(=O)[C@H](Cc1cn(C(c2ccccc2)(c2ccccc2)c2ccccc2)cn1)N(Cc1ccccc1)Cc1ccccc1
Metric: Activity
Readout number: 116
//
Smiles text: COC(=O)[C@H](Cc1cn(C(c2ccccc2)(c2ccccc2)c2ccccc2)cn1)NCc1ccc(N(C)C)cc1
Metric: Activity
Readout number: 105
//
Smiles text: COC(=O)[C@@H](N)Cc1cn(C(c2ccccc2)(c2ccccc2)c2ccccc2)cn1
Metric: Activity
Readout number: 95.9
//
Smiles text: COC(=O)[C@H](Cc1cn(C(c2ccccc2)(c2ccccc2)c2ccccc2)cn1)NCc1ccc(Br)nc1
Metric: Activity
Readout number: 102

====

Let's look at some compounds and their measured pIC50.
- Target or system: NAD-dependent protein deacetylase sirtuin-2 (Homo sapiens)
- Sequence (Q8IXJ6 whole entry): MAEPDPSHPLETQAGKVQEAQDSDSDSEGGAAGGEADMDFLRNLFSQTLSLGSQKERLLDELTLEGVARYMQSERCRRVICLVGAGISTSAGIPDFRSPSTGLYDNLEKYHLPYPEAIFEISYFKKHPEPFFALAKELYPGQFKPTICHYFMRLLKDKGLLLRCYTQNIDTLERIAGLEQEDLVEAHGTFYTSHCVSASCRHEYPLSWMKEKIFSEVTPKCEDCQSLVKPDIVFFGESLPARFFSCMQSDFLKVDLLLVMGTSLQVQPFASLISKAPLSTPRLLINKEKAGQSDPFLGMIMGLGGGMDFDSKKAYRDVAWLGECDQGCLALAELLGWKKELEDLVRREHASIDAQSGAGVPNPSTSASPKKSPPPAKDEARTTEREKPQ
- Measurement description: Inhibition of recombinant SIRT2 (unknown origin) using RHKK(Ac)-MCA as substrate measured after 60 mins by fluorescence assay
pIC50: −log10 of the molar value.

Smiles text: COC(=O)[C@H](Cc1cn(C(c2ccccc2)(c2ccccc2)c2ccccc2)cn1)NCc1cc(N(C)C)ccn1
pIC50: 5.77
//
Smiles text: COC(=O)[C@H](Cc1cn(C(c2ccccc2)(c2ccccc2)c2ccccc2)cn1)NCc1cc(N(C)C)cc(CN[C@@H](Cc2cn(C(c3ccccc3)(c3ccccc3)c3ccccc3)cn2)C(=O)OC)n1
pIC50: 5.06
//
Smiles text: COC(=O)[C@H](Cc1c[nH]cn1)NCc1cc(N(C)C)cc(CN[C@@H](Cc2cn(C(c3ccccc3)(c3ccccc3)c3ccccc3)cn2)C(=O)OC)n1
pIC50: 5.26

====

- Target or system: UniProt:Q8IXJ6
- Measurement description: Inhibition of recombinant SIRT2 (unknown origin) using FAM-RHKK(Ac)LM as substrate measured after 60 mins by electrophoretic mobility shift assay
pIC50: −log10 of the molar value.
Classification field: enter YES for pIC50 values not below 5, NO for values below it.

Smiles text: COC(=O)[C@H](Cc1cn(C(c2ccccc2)(c2ccccc2)c2ccccc2)cn1)NCc1ccc(Br)nc1
Label class: YES

Smiles text: COC(=O)[C@H](Cc1cn(C(c2ccccc2)(c2ccccc2)c2ccccc2)cn1)NCc1cc(N(C)C)ccn1
Label class: YES

Smiles text: COC(=O)[C@H](Cc1cn(C(c2ccccc2)(c2ccccc2)c2ccccc2)cn1)NCc1cccc(N(C)C)c1
Label class: YES

Smiles text: COC(=O)[C@H](Cc1cn(C(c2ccccc2)(c2ccccc2)c2ccccc2)cn1)NC(=O)c1ccccn1
Label class: NO

Smiles text: COC(=O)[C@H](Cc1cn(C(c2ccccc2)(c2ccccc2)c2ccccc2)cn1)NCc1cnc2ccccc2c1
Label class: YES

Smiles text: CCN(CC)c1ccnc(CN[C@@H](Cc2cn(C(c3ccccc3)(c3ccccc3)c3ccccc3)cn2)C(=O)OC)c1
Label class: YES
